# MEASURED_ON: HLA-A*02:06
# ASSAY_EXPLANATION: IEDB peptide-MHC binding, purified MHC/direct/fluorescence; filed as Kd, often an IC50 or EC50 that approximates it; bounds were set here for any values at or beyond the usual limits of such assays
# TEST_CONDITIONS: source organism: Giardia lamblia ATCC 50803
QUANTITY_KIND: Kd (nM)
Answer in nM, number only, no unit symbol.

For record HCIDKTPGL the listed Kd is 106

====

# MEASURED_ON: HLA-A*02:01
# ASSAY_EXPLANATION: IEDB peptide-MHC binding, purified MHC/competitive/fluorescence; filed as Kd, often an IC50 or EC50 that approximates it; bounds were set here for any values at or beyond the usual limits of such assays
# TEST_CONDITIONS: source organism: Influenza A virus (A/quail/Hong Kong/SF550/00(H6N1))
QUANTITY_KIND: Kd (µM)
Answer in µM, number only, no unit symbol.

SMRRNYFTAEV tested on HLA-A*02:01 gave Kd: 1.33
